Species: Rattus norvegicus
Measurement Notes: Open TG-GATES - Regimen: Single
Type: toxicity, organism-based, Sprague-Dawley
Parameters: regimen Single, gender Male, age 6 weeks
Assay Setup: in vivo, po, 0 mg/kg, 9 h, tissue Plasma, route gavage, dose level Control
Readout Type: TG

Examples with answers:
Find the recorded TG belonging to CN(C)CCC=C1c2ccccc2COc2ccccc21 [DOXEPIN] and report it.
33.6 mg/dL

Using the record for CCc1oc2ccccc2c1C(=O)c1cc(Br)c(O)c(Br)c1 , report its TG.
42.8 mg/dL

Would you kindly share the measured TG for ClC(Cl)(Cl)Cl [CARBON TETRACHLORIDE] ?
35.6 mg/dL

Tell me the measured TG of CC[C@H]1[C@@H]2C[C@H]3[C@@H]4N(C)c5ccccc5[C@]45C[C@@H]([C@@H]2[C@H]5O)N3[C@@H]1O , please.
42.8 mg/dL

Now let's try a different one.
// returns reported TG for input CC1=C(CC(=O)O)c2cc(F)ccc2/C1=C\c1ccc([S+](C)[O-])cc1 (stereo not given)
47.6 mg/dL

* * *

Species on record: Rattus norvegicus
Measurement Notes: Open TG-GATES - Regimen: Daily Repeat
Format: toxicity, organism-based, Sprague-Dawley
Design: regimen Daily Repeat, gender Male, age 6 weeks
Assay Setup: in vivo, po, 0 mg/kg, […], tissue Blood, route gavage, dose level Control, time 14 day
Readout Type: APTT (s)
Please respond with the number in s and leave the unit unwritten.

Would you please look over these solved cases?
What measured APTT goes with OCCOCCN1CCN(C(c2ccccc2)c2ccc(Cl)cc2)CC1 (stereo unspecified) [HYDROXYZINE] ?
16.9

For CN(C)C(=N)N=C(N)N [METFORMIN] , what is its reported APTT?
18.3

Request the reported APTT associated with CCCCc1oc2ccccc2c1C(=O)c1cc(I)c(OCCN(CC)CC)c(I)c1 [AMIODARONE]
19.9

Given the entry CC(C)N(CCC(C(N)=O)(c1ccccc1)c1ccccn1)C(C)C (stereo unspecified) [DISOPYRAMIDE] , report its measured APTT.
25.1

Requested read-out: APTT. Entry: CN(C)CCC=C1c2ccccc2COc2ccccc21 [DOXEPIN]
16.8

Next:
Look up APTT: ClC(Cl)(Cl)Cl [CARBON TETRACHLORIDE]
20.1

Please look up its APTT: CC1=C(CC(=O)O)c2cc(F)ccc2/C1=C\c1ccc([S+](C)[O-])cc1 (stereo unspecified)
17.6

Quick one: APTT of O=NN(CCCl)C(=O)NC1CCCCC1 [LOMUSTINE] ?
16.7

* * *

Reported values of TC for individual entries
Species: Rattus norvegicus
Measurement Notes: Open TG-GATES - Regimen: Daily Repeat
Format: toxicity, organism-based, Sprague-Dawley
Design: regimen Daily Repeat, gender Male, age 6 weeks
Assay Setup: in vivo, po, 0 mg/kg, […], tissue Plasma, route gavage, dose level Control, time 14 day
Could you give me the number in mg/dL? Just the number is fine.

Check out these entries, answers already filled in.
// TC lookup, key: CC[C@H]1[C@@H]2C[C@H]3[C@@H]4N(C)c5ccccc5[C@]45C[C@@H]([C@@H]2[C@H]5O)N3[C@@H]1O
69.4

Need TC of CCC1(c2ccccc2)C(=O)NC(=O)NC1=O , thanks.
75.4

Need TC, item ClC(Cl)(Cl)Cl [CARBON TETRACHLORIDE]
69

More entries:
GET /values?readout=TC&item= CCc1oc2ccccc2c1C(=O)c1cc(Br)c(O)c(Br)c1
78.6

For the compound CN(C)CCC=C1c2ccccc2COc2ccccc21 [DOXEPIN] , what TC is on record?
77.4

* * *

Organism: Rattus norvegicus
Measurement Notes: Open TG-GATES - Regimen: Single
Type: toxicity, organism-based, Sprague-Dawley
Set-up: regimen Single, gender Male, age 6 weeks
Assay Setup: in vivo, po, 0 mg/kg, 24 h, tissue Blood, route gavage, dose level Control
Readout Type: Ht (%)
Give a bare numeral; the unit % is implied.

# input molecule: O=NN(CCCl)C(=O)NC1CCCCC1 [LOMUSTINE] ; wanted: its Ht
38.8

Entry CCc1oc2ccccc2c1C(=O)c1cc(Br)c(O)c(Br)c1 [BENZBROMARONE] : reported Ht = ?
41.4

Entry under review: CCC1(c2ccccc2)C(=O)NC(=O)NC1=O [PHENOBARBITAL] . Reported Ht?
37.5

Could you tell me which Ht is on file for CC[C@H]1[C@@H]2C[C@H]3[C@@H]4N(C)c5ccccc5[C@]45C[C@@H]([C@@H]2[C@H]5O)N3[C@@H]1O [AJMALINE] ?
38.2

What Ht value was documented for this molecule, O=NN1CCOCC1 [N-NITROSOMORPHOLINE] ?
38.4

Others:
Param item = CC(C)N(CCC(C(N)=O)(c1ccccc1)c1ccccn1)C(C)C (stereo unspecified) [DISOPYRAMIDE] ; retrieve measured Ht.
40.9

Field request: Ht | item: CN(C)C(=N)N=C(N)N [METFORMIN]
38.7

Using the record for CC1=C(CC(=O)O)c2cc(F)ccc2/C1=C\c1ccc([S+](C)[O-])cc1 (stereo unspecified) , report its Ht.
42.7

Query (molecule): CN(C)CCC=C1c2ccccc2COc2ccccc21 [DOXEPIN] ; field requested: Ht
38.8

Please report the recorded Ht for OCCOCCN1CCN(C(c2ccccc2)c2ccc(Cl)cc2)CC1 (stereo unspecified) [HYDROXYZINE] .
40.4

Fill in the blank: the reported Ht of ClC(Cl)(Cl)Cl [CARBON TETRACHLORIDE] is ____.
38.8

* * *

Below is a list of entries, each paired with its recorded RBC value.
Organism: Rattus norvegicus
Measurement Notes: Open TG-GATES - Regimen: Daily Repeat
Type: toxicity, organism-based, Sprague-Dawley
Design: regimen Daily Repeat, gender Male, age 6 weeks
Assay Setup: in vivo, po, 0 mg/kg, 72 h, tissue Blood, route gavage, dose level Control, time 3 day
Kindly answer with a numeric value in x10_4/ul, unit omitted.

Entry under review: CN(C)C(=N)N=C(N)N [METFORMIN] . Reported RBC?
603.2

Could you share which RBC value was measured for CC1=C(CC(=O)O)c2cc(F)ccc2/C1=C\c1ccc([S+](C)[O-])cc1 (stereo not given) ?
662.2

I'd like to know its RBC. The compound in question is ClC(Cl)(Cl)Cl [CARBON TETRACHLORIDE]
629.2

Give its RBC value. Item: CC[C@H]1[C@@H]2C[C@H]3[C@@H]4N(C)c5ccccc5[C@]45C[C@@H]([C@@H]2[C@H]5O)N3[C@@H]1O [AJMALINE]
617.4

Consider the record given below.
Looking for the measured RBC of CCCCc1oc2ccccc2c1C(=O)c1cc(I)c(OCCN(CC)CC)c(I)c1 [AMIODARONE] , can you help?
631.4

* * *

Let's look at some compounds and their measured gamma-GTP.
Species: Rattus norvegicus
Measurement Notes: Open TG-GATES - Regimen: Daily Repeat
Format: toxicity, organism-based, Sprague-Dawley
Design: regimen Daily Repeat, gender Male, age 6 weeks
Assay Setup: in vivo, po, 0 mg/kg, 72 h, tissue Plasma, route gavage, dose level Control, time 3 day
Write the number in IU/L without appending the unit.

Some solved cases for reference:
So what does the record say about gamma-GTP for CC(C)N(CCC(C(N)=O)(c1ccccc1)c1ccccn1)C(C)C (stereo not given) [DISOPYRAMIDE] ?
2

For the compound shown here, CCCCc1oc2ccccc2c1C(=O)c1cc(I)c(OCCN(CC)CC)c(I)c1 [AMIODARONE] , give the reported gamma-GTP.
1

***
Endpoint output: gamma-GTP of CN(C)C(=N)N=C(N)N [METFORMIN] . Value?
1

// returns reported gamma-GTP for input CC1=C(CC(=O)O)c2cc(F)ccc2/C1=C\c1ccc([S+](C)[O-])cc1 (stereo not given)
1

State the recorded gamma-GTP for this entry: OCCOCCN1CCN(C(c2ccccc2)c2ccc(Cl)cc2)CC1 (stereo not given) [HYDROXYZINE]
0.8

* * *

Species on record: Rattus norvegicus
Measurement Notes: Open TG-GATES - Regimen: Single
Type: toxicity, organism-based, Sprague-Dawley
Design: regimen Single, gender Male, age 6 weeks
Assay Setup: in vivo, po, 0 mg/kg, 3 h, tissue Blood, route gavage, dose level Control
Label Condition met when Ht < 40%; otherwise Condition not met.

Answer whether the compound CN(C)CCC=C1c2ccccc2COc2ccccc21 [DOXEPIN] has Ht strictly less than 40%
Condition not met

Take the compound CCC1(c2ccccc2)C(=O)NC(=O)NC1=O [PHENOBARBITAL] and say whether its Ht is less than 40%.
Condition met

Next item in the queue.
Please determine if CC1=C(CC(=O)O)c2cc(F)ccc2/C1=C\c1ccc([S+](C)[O-])cc1 (stereo unspecified) is below 40% in terms of Ht.
Condition not met

* * *

Species on record: Rattus norvegicus
Measurement Notes: Open TG-GATES - Regimen: Single
Type: toxicity, organism-based, Sprague-Dawley
Parameters: regimen Single, gender Male, age 6 weeks
Assay Setup: in vivo, po, 0 mg/kg, 6 h, tissue Plasma, route gavage, dose level Control
Recorded PL for the following molecules
Quick note: give the figure in mg/dL, leave out the unit.

// PL lookup, key: CCC1(c2ccccc2)C(=O)NC(=O)NC1=O
135.6

// query PL value for entry O=NN(CCCl)C(=O)NC1CCCCC1
141.6

Could you share which PL value was measured for OCCOCCN1CCN(C(c2ccccc2)c2ccc(Cl)cc2)CC1 (stereo not given) [HYDROXYZINE] ?
147.6

Entry CN(C)C(=N)N=C(N)N has what PL?
121

PL lookup needed for CC(C)N(CCC(C(N)=O)(c1ccccc1)c1ccccn1)C(C)C (stereo not given) [DISOPYRAMIDE] , thanks.
135

Further cases:
Reported PL for CCc1oc2ccccc2c1C(=O)c1cc(Br)c(O)c(Br)c1 : what is it?
142.2

# input molecule: CN(C)CCC=C1c2ccccc2COc2ccccc21 [DOXEPIN] ; wanted: its PL
143.6

Returns the measured PL for the input molecule. Input: CC1=C(CC(=O)O)c2cc(F)ccc2/C1=C\c1ccc([S+](C)[O-])cc1 (stereo not given)
142

Which PL value is on record for CC[C@H]1[C@@H]2C[C@H]3[C@@H]4N(C)c5ccccc5[C@]45C[C@@H]([C@@H]2[C@H]5O)N3[C@@H]1O ?
133.2

Using the record for ClC(Cl)(Cl)Cl [CARBON TETRACHLORIDE] , report its PL.
161.4
